target_entity: Human TLR8 (Homo sapiens (Human), UniProt Q9NR97)
Sequence (Q9NR97 27-1041): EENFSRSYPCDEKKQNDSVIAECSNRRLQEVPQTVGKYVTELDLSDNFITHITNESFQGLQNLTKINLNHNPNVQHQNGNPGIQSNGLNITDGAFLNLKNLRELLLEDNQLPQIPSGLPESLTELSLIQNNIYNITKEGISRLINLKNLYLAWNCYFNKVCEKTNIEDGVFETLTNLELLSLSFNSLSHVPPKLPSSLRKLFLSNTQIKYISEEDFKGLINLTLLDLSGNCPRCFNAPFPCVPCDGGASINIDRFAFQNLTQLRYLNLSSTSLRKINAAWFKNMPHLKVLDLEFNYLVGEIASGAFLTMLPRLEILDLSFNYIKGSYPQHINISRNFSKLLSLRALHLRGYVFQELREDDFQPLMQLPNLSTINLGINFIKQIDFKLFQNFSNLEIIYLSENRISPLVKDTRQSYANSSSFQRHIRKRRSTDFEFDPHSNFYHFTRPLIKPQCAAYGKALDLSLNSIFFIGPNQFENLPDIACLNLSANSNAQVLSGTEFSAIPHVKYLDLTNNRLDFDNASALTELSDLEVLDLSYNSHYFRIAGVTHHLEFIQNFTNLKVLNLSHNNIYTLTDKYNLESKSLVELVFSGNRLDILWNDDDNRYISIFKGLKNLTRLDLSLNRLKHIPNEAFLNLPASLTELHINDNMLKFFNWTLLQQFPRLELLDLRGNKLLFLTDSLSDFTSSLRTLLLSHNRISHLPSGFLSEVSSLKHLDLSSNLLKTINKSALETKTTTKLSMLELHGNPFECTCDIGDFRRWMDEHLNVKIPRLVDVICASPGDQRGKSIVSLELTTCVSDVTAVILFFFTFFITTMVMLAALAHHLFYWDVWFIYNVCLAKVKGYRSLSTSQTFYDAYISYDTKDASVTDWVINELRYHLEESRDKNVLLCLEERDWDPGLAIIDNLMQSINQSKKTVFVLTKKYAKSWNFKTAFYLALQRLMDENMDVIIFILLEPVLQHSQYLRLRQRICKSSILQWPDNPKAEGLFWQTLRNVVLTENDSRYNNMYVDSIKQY
measurement_protocol: HEK-Blue hTLR8 SEAP reporter gene assay (agonistic activity)
Assay type: cell-based
condition_notes: HEK-Blue hTLR8 cells, 24 h incubation, SEAP by QUANTI-Blue OD650
From the text: The HEK-Blue™ hTLR7 (catalog No.: hkb-ht1r7) and HEK-Blue™ hTLR8 (catalog No.: hkb-ht1r8) cell lines used in this experiment were purchased from InvivoGen. […] • 1. […] The cells were counted and the cell suspension was adjusted to 500,000 cells/mL with the culture medium. […] Activity assay on the cells: luciferase signal (RLU) was detected using a multi-functional microplate reader as per the process described in the instructions of ATPlite 1Step. • 6. […]
readout: EC50 (nM)

(P) CCCCC(C)(CNC(=O)[C@@H]1COCCN1)Nc1nc(N)nc2cccnc12 (single isomer, unassigned)
(Q) CCCCC(C)(CNC(=O)[C@@H]1CC(F)(F)CN1)Nc1nc(N)nc2cccnc12 (single isomer, unassigned)
(R) CCCCC(C)(CNC(=O)[C@@H]1CCCN1)Nc1nc(N)nc2cnccc12 (stereo partly drawn)
Req: I'd appreciate it if you sorted the entries above by their EC50, lowest to highest. Put the labels in the requested order and list them out.
Resp: R, P, Q
(R: 6 nM, P: 14 nM, Q: 106 nM)

Provenance of the data: patent US12071435B2
